- ASSAY_SYSTEM: T1, human GIP receptor (human, UniProt P48546 22-466)
- T1 sequence (looked up): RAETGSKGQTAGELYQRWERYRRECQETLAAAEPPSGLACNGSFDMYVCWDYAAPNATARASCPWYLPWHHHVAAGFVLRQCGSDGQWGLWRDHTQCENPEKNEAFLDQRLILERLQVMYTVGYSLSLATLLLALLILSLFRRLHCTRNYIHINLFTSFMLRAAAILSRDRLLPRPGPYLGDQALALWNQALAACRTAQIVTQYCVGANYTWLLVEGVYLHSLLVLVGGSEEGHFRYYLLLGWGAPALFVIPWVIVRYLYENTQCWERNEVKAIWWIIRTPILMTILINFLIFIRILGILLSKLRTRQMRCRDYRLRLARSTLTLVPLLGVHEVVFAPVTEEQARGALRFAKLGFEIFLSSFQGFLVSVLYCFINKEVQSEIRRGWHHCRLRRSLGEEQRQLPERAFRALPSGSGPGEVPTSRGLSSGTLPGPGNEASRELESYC
- MEASUREMENT_DESCRIPTION: cell-based or functional assay
Numbered stars: 1 amine (or outer) side, 2 acyl side, 3 side chain; on linkers, the order of the positions; unused ones are H or OH. Square brackets hold non-standard residues; d marks the D form. Side chains are listed from the residue outwards. * marks the point of attachment. Chem. 22 = C20 diacid gamma-Glu, O=C(O)CCCCCCCCCCCCCCCCCCC(=O)N[C@@H](CCC(=O)*)C(=O)O; C20 diacid = O=C(O)CCCCCCCCCCCCCCCCCCC(=O)*; γGlu = O=C(O)[C@H](CCC(=O)[*:2])N[*:1]; AEEA = NCCOCCOCC(=O)O; Aib = CC(C)(N)C(=O)O
The reader will find reported hGIPR Potency, no HSA, EC50 [pM] values listed item by item below.
Response body: numeric value in pM, unit text excluded.

• Compound 42 (peptide) peptide: Y[Aib]EGTFTSDYSILLEEQAAREFIEWLLAGGPSSK(Chem. 22)APPPSGGGEASELSTAALGRLSAELHRLATLPRTETGSGSP-NH2 = 8.01

*Q* Input Compound 96 (peptide) peptide: Y[Aib]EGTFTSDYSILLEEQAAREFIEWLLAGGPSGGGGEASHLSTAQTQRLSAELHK([AEEA-AEEA-γGlu-C20 diacid])LATLPRTETGSGSP-NH2 , output reported hGIPR Potency, no HSA, EC50 [pM].
*A* 3.62

Entry source: patent US20260174875A1
